Would you mind telling me the reported pIC50 of each entry?
biological target: T1, His-tagged, full-length PCSK9 (human, UniProt Q8NBP7 31-692); experiment: TR-FRET competition; His-PCSK9, competitor EGF(A)-Fc
T1 construct: The secreted protein is autocleaved into a prodomain and a catalytic/Cys-rich chain that starts at S153; also called His-PCSK9
T1 sequence (Q8NBP7 other isoform, or with tags, fused parts or gaps limits assumed): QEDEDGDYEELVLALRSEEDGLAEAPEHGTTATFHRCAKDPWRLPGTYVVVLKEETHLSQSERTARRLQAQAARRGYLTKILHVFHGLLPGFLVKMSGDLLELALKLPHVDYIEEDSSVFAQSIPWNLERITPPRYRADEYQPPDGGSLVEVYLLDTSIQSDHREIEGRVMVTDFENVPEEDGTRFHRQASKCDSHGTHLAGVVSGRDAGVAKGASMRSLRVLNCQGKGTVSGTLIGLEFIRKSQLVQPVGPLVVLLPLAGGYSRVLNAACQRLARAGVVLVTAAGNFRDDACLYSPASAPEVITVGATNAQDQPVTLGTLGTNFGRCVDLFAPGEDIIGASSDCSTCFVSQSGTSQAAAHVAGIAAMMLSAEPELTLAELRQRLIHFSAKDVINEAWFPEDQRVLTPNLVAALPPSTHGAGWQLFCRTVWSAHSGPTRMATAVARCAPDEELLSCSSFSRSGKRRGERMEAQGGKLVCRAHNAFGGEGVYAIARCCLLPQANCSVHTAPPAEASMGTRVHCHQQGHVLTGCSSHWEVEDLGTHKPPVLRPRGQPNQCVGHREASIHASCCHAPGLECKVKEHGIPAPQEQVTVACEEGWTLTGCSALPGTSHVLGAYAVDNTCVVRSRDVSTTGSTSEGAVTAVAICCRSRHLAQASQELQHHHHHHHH
Square brackets hold non-standard residues; d marks the D form. Ends that are not written are not given here. hArg = N=C(N)NCCCC[C@H](N)C(=O)O
Answers are plain numbers, as −log10 of the molar value.

{"columns": ["BINDER", "pIC50"],
 "data": [
  ["WNLV[hArg]IGLLR (also: further groups not given here, Structure printed only as a drawing) [Compound 207]", 5.89],
  ["WNLV[hArg]IGNR (also: further groups not given here, Structure printed only as a drawing) [Compound 240]", 4.51],
  ["WNLV[hArg]IGLLR (also: further groups not given here, Structure printed only as a drawing) [Compound 218]", 5.30],
  ["WNLV[hArg]IGLLR (also: further groups not given here, Structure printed only as a drawing) [Compound 215]", 5.15]
]}

List reported pIC50 for each of these binders:
1. WNLV[hArg]IGLLR (also: further groups not given here, Structure printed only as a drawing) [Compound 219]
2. WNLV[hArg]IGLLR (also: further groups not given here, Structure printed only as a drawing) [Compound 226]
3. WNLV[hArg]IGLLR (also: end groups and other groups only in drawing, Structure printed only as a drawing) [Compound 198]

// result
5.00
5.21
5.77

Numbers sourced from patent US20200283478A1.
